System: YFV
Measurement parameters: read-out: IC50, YFV; Vero E6, MOI of 1, YFV/17D strain, titration of supernatants
Where no end group is shown, it is not given here.
Readout type: pIC50
Field pIC50 (float): negative decimal logarithm of the concentration in molar.

Q: Give a short answer stating reported pIC50 for MANAGLQLLGFILAFLGW [CL1.1] .
Ans: 6.25

Where do these numbers come from? They come from paper PMC9603178.
